Source listed as patent US20200247897A1.

Tested on: DLD-1
Test Description: Drug combination screen (ATPlite, Synergy Score), DLD-1
Conditions Used: compound in combination with IgG1-hDR5-01-G56T-E430G + IgG1-hDR5-05-E430G; DLD-1; 120 hour ATPlite, 6x6 matrix
Recorded Metric: Synergy Score DLD-1
Numbers only.

CCc1c2c(nc3ccc(OC(=O)N4CCC(N5CCCCC5)CC4)cc13)-c1cc3c(c(=O)n1C2)COC(=O)[C@]3(O)CC [irinotecan, reference compound]: 15
CC(=O)Nc1cccc(-n2c(=O)n(C3CC3)c(=O)c3c(Nc4ccc(I)cc4F)n(C)c(=O)c(C)c32)c1 [Trametinib]: 4.1
Nc1ccn([C@@H]2O[C@H](CO)[C@@H](O)C2(F)F)c(=O)n1 [Gemcitabine]: 20.3

Read the next record carefully.
## Input I'd like to know its Synergy Score DLD-1. The compound in question is Cc1cc(NC(=O)c2cccc(NC(=O)/C=C/CN(C)C)c2)ccc1Nc1nccc(-c2cccnc2)n1 [JNK-IN-8]
## Output 0.2
